- system-under-test: T1, DGI-2 polypeptide (UniProt Q15004 1-111, limits assumed)
- T1 construct: Vector-derived residues or tag of pIVEX2.3 are not described for this construct; also called KIAA0101
- T1 sequence (looked up): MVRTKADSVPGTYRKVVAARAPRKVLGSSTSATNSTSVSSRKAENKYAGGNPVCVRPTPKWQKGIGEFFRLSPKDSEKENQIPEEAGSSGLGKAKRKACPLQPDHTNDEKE
- test-method-notes: phage ELISA, 405 nm; DGI-2 signal over LDH signal
Collected DGI-2/LDH (OD) values appear next to each entry.
Provide the reading as a plain figure in ratio.

Illustrative cases are given below, each with its answer.
binder | endpoint-result
DGI-2-40F-3-D6 (not shown: phage gene III coat protein (pCANTAB5E)) peptide: GLEPVPFQTDKRIAMGWTREWLVNGYGAAHRRDARMQSGHAAAGAPVPYPDPLEPRP | 2.6
DGI-2-40F-3-A8 (not shown: phage gene III coat protein (pCANTAB5E)) peptide: GQISLAGVAVCSSERMLLAFSSRVFLPGLKVPVTTSQRGSAAAGAPVPYPDPLEPRP | 1.1

Below: the item to evaluate.
*Q* Please look up its DGI-2/LDH (OD): RWSLPAYLCRFVSQASCNSRAAAGAPVPYPDPLEPRP (not shown: phage gene III coat protein (pCANTAB5E)) [DGI-2-20R-3-C12]
*A* 1.6
